Data origin: ChEMBL document CHEMBL4680060

experiment: Hemolytic activity in pig erythrocyte at 512 ug/ml incubated for 1 hr by microplate reader assay relative to control; type: ADME, cell-based, Sus scrofa; settings: pig erythrocytes, at 512 µg/mL, read-out: Activity
propertyLabel: hemolysis at 1 h, 512 ug/ml

Recorded hemolysis at 1 h, 512 ug/ml of `C[C@H]1COc2c(N3CCN(C)CC3)c(F)cc3c(=O)c(C(=O)NCCCCCCCCCCCC(=O)N[C@@H](CCN)C(=O)N[C@@H](CCN)C(N)=O)cn1c23` , please. < 1%

----------
tested on: Stenotrophomonas maltophilia; test: Antibacterial activity against Stenotrophomonas maltophilia clinical isolate CAN-ICU 62584 assessed as inhibition of visible growth incubated for 18 hrs by CLSI protocol based microbroth dilution method; type: functional
propertyLabel: MIC

Use the examples below as a reference point.
# compound, MIC
records = [
    ("C[C@H]1COc2c(N3CCN(C)CC3)c(F)cc3c(=O)c(C(=O)N[C@@H](CCN)C(N)=O)cn1c23", "> 128 µg/mL"),
    ("C[C@H]1COc2c(N3CCN(C)CC3)c(F)cc3c(=O)c(C(=O)N[C@@H](CCC(=O)O)C(=O)N[C@H](CN)CCC(=O)O)cn1c23", "16 µg/mL"),
]

Now for a further compound.
What MIC value was documented for this compound, C[C@H]1COc2c(N3CCN(C)CC3)c(F)cc3c(=O)c(C(=O)O)cn1c23.C[C@H]1COc2c(N3CCN(C)CC3)c(F)cc3c(=O)c(C(=O)O)cn1c23.O [LEVOFLOXACIN] ? 4 µg/mL
